The origin of these recorded values is patent US12559506B2.

Entries and their Dmax
# system_under_test: wildtype LRRK2 (Homo sapiens, UniProt Q5S007)
# Construct: expressed in transfected cells; host or cells: HEK293 (ATCC CRL-1573), transient transfection, mammalian expression vector with ubiquitin promoter
# Sequence (Q5S007 whole entry): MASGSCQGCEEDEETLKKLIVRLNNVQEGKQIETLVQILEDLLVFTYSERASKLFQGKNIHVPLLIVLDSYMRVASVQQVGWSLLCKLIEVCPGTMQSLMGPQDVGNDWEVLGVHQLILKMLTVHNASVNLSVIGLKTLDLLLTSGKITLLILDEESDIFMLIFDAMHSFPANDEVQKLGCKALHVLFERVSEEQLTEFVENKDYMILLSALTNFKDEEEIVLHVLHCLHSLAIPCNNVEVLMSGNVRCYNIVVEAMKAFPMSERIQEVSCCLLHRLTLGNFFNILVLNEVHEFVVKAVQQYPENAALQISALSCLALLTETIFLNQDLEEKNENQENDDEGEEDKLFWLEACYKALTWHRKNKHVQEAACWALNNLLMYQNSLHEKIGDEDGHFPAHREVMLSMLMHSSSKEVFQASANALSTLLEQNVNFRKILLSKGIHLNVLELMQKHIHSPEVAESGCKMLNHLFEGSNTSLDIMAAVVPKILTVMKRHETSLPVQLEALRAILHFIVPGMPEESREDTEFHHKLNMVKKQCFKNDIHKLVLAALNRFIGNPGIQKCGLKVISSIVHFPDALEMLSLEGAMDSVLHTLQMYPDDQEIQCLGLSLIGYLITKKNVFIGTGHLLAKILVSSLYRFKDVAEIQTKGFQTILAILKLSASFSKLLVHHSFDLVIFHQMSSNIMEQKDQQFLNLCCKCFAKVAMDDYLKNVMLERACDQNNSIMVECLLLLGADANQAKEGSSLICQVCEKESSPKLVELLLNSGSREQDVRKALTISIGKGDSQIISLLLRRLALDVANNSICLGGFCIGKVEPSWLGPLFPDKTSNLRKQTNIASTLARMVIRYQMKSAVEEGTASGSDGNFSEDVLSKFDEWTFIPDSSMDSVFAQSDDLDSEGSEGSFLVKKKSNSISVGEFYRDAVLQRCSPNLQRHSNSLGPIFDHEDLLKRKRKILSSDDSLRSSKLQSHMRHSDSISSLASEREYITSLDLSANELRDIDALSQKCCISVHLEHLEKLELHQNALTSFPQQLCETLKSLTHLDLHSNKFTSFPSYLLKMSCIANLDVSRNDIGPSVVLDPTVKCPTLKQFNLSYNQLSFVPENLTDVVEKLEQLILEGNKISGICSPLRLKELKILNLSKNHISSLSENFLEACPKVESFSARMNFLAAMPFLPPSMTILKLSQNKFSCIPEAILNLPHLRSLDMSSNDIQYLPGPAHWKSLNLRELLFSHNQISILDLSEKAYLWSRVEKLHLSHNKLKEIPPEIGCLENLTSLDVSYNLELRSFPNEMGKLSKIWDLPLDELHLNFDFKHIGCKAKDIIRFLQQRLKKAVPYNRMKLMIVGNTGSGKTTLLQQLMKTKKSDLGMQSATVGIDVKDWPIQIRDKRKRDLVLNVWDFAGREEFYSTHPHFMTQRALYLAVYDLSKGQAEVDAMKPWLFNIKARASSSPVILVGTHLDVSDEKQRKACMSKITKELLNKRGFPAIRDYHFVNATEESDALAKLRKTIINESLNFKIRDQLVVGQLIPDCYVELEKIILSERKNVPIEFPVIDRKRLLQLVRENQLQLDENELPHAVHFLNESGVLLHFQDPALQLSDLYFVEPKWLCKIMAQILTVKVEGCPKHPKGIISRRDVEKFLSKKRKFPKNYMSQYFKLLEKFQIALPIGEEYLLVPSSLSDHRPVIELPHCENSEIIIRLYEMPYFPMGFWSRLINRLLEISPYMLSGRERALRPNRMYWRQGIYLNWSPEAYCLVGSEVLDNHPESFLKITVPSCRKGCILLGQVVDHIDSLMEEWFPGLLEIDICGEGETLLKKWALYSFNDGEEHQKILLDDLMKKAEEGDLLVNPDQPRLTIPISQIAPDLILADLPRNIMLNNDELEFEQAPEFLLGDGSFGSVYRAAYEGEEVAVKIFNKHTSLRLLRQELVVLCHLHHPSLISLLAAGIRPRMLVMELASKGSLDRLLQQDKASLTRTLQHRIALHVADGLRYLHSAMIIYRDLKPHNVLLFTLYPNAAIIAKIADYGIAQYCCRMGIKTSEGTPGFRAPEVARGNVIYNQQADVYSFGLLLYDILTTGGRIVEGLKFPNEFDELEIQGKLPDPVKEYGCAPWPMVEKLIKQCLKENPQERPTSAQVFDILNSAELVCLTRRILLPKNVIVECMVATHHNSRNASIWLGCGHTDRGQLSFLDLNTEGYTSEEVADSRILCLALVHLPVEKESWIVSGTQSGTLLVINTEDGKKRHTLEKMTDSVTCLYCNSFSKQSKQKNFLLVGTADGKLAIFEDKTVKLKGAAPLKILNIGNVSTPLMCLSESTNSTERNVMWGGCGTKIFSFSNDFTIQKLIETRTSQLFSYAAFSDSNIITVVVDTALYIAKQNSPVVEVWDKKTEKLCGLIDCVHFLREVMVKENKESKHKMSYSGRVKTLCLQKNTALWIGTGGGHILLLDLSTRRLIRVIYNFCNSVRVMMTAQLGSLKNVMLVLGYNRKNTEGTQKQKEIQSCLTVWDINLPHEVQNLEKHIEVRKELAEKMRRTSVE
# test_summary: LRRK2 degradation assay, HiBit-tagged wildtype LRRK2 expressed from plasmid in HEK293 cells (Nano-Glo Dual-Luciferase)
# Format: cell-based
# cond: HiBit-tagged wildtype LRRK2, HEK293 cells, 24 hours; read-out: **WT Dmax (%)
measure_name: Dmax

compound	reading
CC1(Oc2ccc3n[nH]c(-c4cc(N5CCN(Cc6ccc(CN7CCN(c8ccc9c(c8)C(=O)N(C8CCC(=O)NC8=O)C9=O)CC7)cc6)CC5)ncn4)c3c2)CC1 (centres unmarked)	< 50%
CC1(Oc2ccc3n[nH]c(-c4cc(N5CCN(Cc6ccc(CN7CCN(c8ccc9c(c8)C(=O)N(C8CCC(=O)NC8=O)C9=O)CC7)nn6)CC5)ncn4)c3c2)CC1 (centres unmarked)	50 to 70%
CC1(Oc2ccc3[nH]nc(-c4cc(N5CCC(CN6CC7(CCN7CC7CCN(c8ccc9c(c8)C(=O)N(C8CCC(=O)NC8=O)C9=O)CC7)C6)CC5)ncn4)c3c2)CC1 (centres unmarked)	50 to 70%
CC1(Oc2ccc3[nH]nc(-c4cc(N5CCO[C@@H](CN6CCN(CC7CCN(c8ccc9c(c8)C(=O)N(C8CCC(=O)NC8=O)C9=O)CC7)CC6)C5)ncn4)c3c2)CC1 (some centres unmarked)	< 50%
CC1(Oc2ccc3[nH]nc(-c4cc(N5CC[C@H](CN6CCN(CC7CCN(c8ccc9c(c8)C(=O)N(C8CCC(=O)NC8=O)C9=O)CC7)CC6)C5)ncn4)c3c2)CC1 (some centres unmarked)	< 50%

---

# system_under_test: LRRK2 (endogenous, HiBit tagged) (Homo sapiens, UniProt Q5S007)
# Construct: endogenous in cells; host or cells: HEK293 cells with HiBit knock-in at the endogenous LRRK2 locus, stably expressing firefly luciferase
# Sequence (Q5S007 whole entry): as above
# test_summary: Endogenous LRRK2 degradation assay, endogenous gene C-terminally HiBit-tagged in HEK293 cells (Nano-Glo Dual Luciferase)
# Assay type: cell-based
# cond: endogenous HiBit-tagged LRRK2 in HEK293 cells, 24 hours treatment; read-out: Endogenous WT Dmax

molecule	Dmax
CC1(Oc2cc3c(-c4cc(N5CCN(C[C@H]6CC[C@H](CN7CCN(c8ccc9c(c8F)CN(C8CCC(=O)NC8=O)C9=O)CC7)CC6)CC5)ncn4)n[nH]c3cc2F)CC1 (some centres unmarked)	≥ 70%
COc1c(N2CCC(CN3CCN(CC4CCN(c5cc(-c6n[nH]c7cnc(OC8(C)CC8)cc67)ncn5)CC4)C(C)(C)C3)CC2)ccc2c1CN(C1CCC(=O)NC1=O)C2=O (centres unmarked)	50 to 70%
CC1(Oc2cc3c(-c4cc(N5CCC(CN6CCC(F)(CC7CCN(c8ccc9c(c8F)CN(C8CCC(=O)NC8=O)C9=O)CC7)CC6)CC5)ncn4)n[nH]c3cc2F)CC1 (centres unmarked)	50 to 70%
CC1(Oc2ccc3[nH]nc(-c4cc(N5CCC(CN6CCC(F)(CN7CCN(c8c(F)cc9c(c8F)CN(C8CCC(=O)NC8=O)C9=O)CC7)CC6)CC5)ncn4)c3c2)CC1 (centres unmarked)	≥ 70%
CC1(Oc2ccc3n[nH]c(-c4cc(N5CCN(C[C@H]6CC[C@H](OC7CCN(c8cc9c(cc8F)C(=O)N(C8CCC(=O)NC8=O)C9)CC7)CC6)CC5)ncn4)c3c2)CC1 (some centres unmarked)	50 to 70%
CC1(Oc2ccc3[nH]nc(-c4cc(N5CCC(O[C@H]6CC[C@H](CN7CCN(c8ccc9c(c8F)CN(C8CCC(=O)NC8=O)C9=O)CC7(C)C)CC6)CC5)ncn4)c3c2)CC1 (some centres unmarked)	50 to 70%
COc1c(N2CCC(CN3CCN(CC4CCN(c5cc(-c6n[nH]c7ccc(OC8(C)CC8)cc67)ncn5)CC4)C(C)(C)C3)CC2)ccc2c1CN(C1CCC(=O)NC1=O)C2=O (centres unmarked)	50 to 70%
CC1(Oc2ccc3n[nH]c(-c4cc(N5CCC(O[C@H]6CC[C@H](OC7CCN(c8cc9c(cc8F)C(=O)N(C8CCC(=O)NC8=O)C9)CC7)CC6)CC5)ncn4)c3c2)CC1 (some centres unmarked)	50 to 70%
COc1c(N2CCN(C[C@H]3CC[C@H](OC4CCN(c5cc(-c6[nH]nc7ccc(OC8(C)CC8)cc67)ncn5)CC4)CC3)CC2)ccc2c1CN(C1CCC(=O)NC1=O)C2=O (some centres unmarked)	50 to 70%
COc1c(N2CCC(CN3CCN(CC4CCN(c5cc(-c6n[nH]c7cnc(OC8(C)CC8)cc67)ncn5)CC4)CC3)CC2)ccc2c1CN(C1CCC(=O)NC1=O)C2=O (centres unmarked)	50 to 70%
CC1(Oc2ccc3n[nH]c(-c4cc(N5CCC(CN6CCN(CC7CCN(c8ccc(F)c9c8CN(C8CCC(=O)NC8=O)C9=O)CC7)CC6)CC5)ncn4)c3c2)CC1 (centres unmarked)	≥ 70%
CC1(Oc2ccc3n[nH]c(-c4cc(N5CCN(C[C@H]6CC[C@H](OC7CCN(c8ccc9c(c8F)CN(C8CCC(=O)NC8=O)C9=O)CC7)CC6)CC5)ncn4)c3c2)CC1 (some centres unmarked)	50 to 70%
COc1c(N2CCC(O[C@H]3CC[C@H](CN4CCN(c5cc(-c6n[nH]c7ccc(OC8(C)CC8)cc67)ncn5)CC4(C)C)CC3)CC2)ccc2c1CN(C1CCC(=O)NC1=O)C2=O (some centres unmarked)	50 to 70%
CC1(Oc2ccc3[nH]nc(-c4cc(N5CCC(COC6CCC7(CC6)CN(c6ccc8c(c6F)CN(C6CCC(=O)NC6=O)C8=O)C7)CC5)ncn4)c3c2)CC1 (centres unmarked)	50 to 70%
COc1c(N2CCC(O[C@H]3CC[C@H](CN4CCN(c5cc(-c6n[nH]c7ccc(OC8(C)CC8)cc67)ncn5)C[C@@H]4C)CC3)CC2)ccc2c1CN(C1CCC(=O)NC1=O)C2=O (some centres unmarked)	50 to 70%
COc1c(N2CCN(CC3(F)CCN(CC4CCN(c5cc(-c6n[nH]c7cnc(OC8(C)CC8)cc67)ncn5)CC4)CC3)CC2)ccc2c1CN(C1CCC(=O)NC1=O)C2=O (centres unmarked)	50 to 70%
CC1(Oc2ccc3[nH]nc(-c4cc(N5CCC(CN6C7CC6CN(CC6CCN(c8ccc9c(c8F)CN(C8CCC(=O)NC8=O)C9=O)CC6)C7)CC5)ncn4)c3c2)CC1 (centres unmarked)	≥ 70%
CC1(Oc2ccc3[nH]nc(-c4cc(N5CCC(CN6CCN(CC7CCN(c8ccc9c(c8Cl)CN(C8CCC(=O)NC8=O)C9=O)CC7)CC6)CC5)ncn4)c3c2)CC1 (centres unmarked)	≥ 70%
CC1(Oc2ccc3n[nH]c(-c4cc(N5CCC(CN6C[C@H]7C[C@@H]6CN7CC6CCN(c7ccc8c(c7F)CN(C7CCC(=O)NC7=O)C8=O)CC6)CC5)ncn4)c3c2)CC1 (some centres unmarked)	50 to 70%
CC1(Oc2cc3c(-c4cc(N5CCC(CN6CCN(CC7(F)CCN(c8ccc9c(c8F)CN(C8CCC(=O)NC8=O)C9=O)CC7)CC6)CC5)ncn4)[nH]nc3cc2F)CC1 (centres unmarked)	50 to 70%
